Reported pKd values follow for various binders
Biological target: T1, rhesus monkey transferrin receptor (rhTfR) fused to EGFP, on CHO cells (rhesus monkey)
T1 construct: whole, on cells; also called rhesus monkey TfR
Assay: apparent Kd, flow cytometry, CHO cells
Scale for pKd: -log10 of concentration given in mol/L; no unit attached.

Example cases with answers are listed next.
[
  {
    "binder": "B8^V31 (VHH) VHH: EVQLVESGGGVVQPGGSLRLSCAASGEIKSINFMRWYRQAPGKQREWVAGFTRDGSTNYPDSAKGRFTISRDNAKNTVYLQIDSLKPEDTAVYYCYMLDTWGQGTQVTVSS",
    "pKd": 7.70
  },
  {
    "binder": "C5^V30 (VHH) VHH: EVQLVESGGGVVQPGGSLKLSCVASGTDKSINFIRWYRQAPGKQREFVAGFTATGNTNYADSMKGRFTISRDNTKNAVYLQIDSLKPEDTAVYYCYMLDKWGQGTQVTVSS",
    "pKd": 6.44
  },
  {
    "binder": "C5^h22 (VHH) VHH: EVQLVESGGGVVQPGGSLRLSCAASGTDFSINFIRWYRQAPGKGREFVAGFTATGNTNYADSVKGRFTISRDNAKNTLYLQMNSLRPEDTAVYYCYMLDKWGQGTQVTVSS",
    "pKd": 6.12
  },
  {
    "binder": "C5^h9 (VHH) VHH: EVQLVESGGGVVQPGGSLRLSCAASGTDFSINFIRWYRQAPGKGLEFVAGFTATGNTNYADSVKGRFTISRDNAKNTLYLQMNSLRPEDTAVYYCYMLDKWGQGTQVTVSS",
    "pKd": 6.31
  }
]

Moving on to another binder below.
For this binder ( VHH A1 (C5^V1) (VHH) VHH: EVQLVESGGGVVQPGGSLKLSCVASGADFSINFIRWYRQAPGKQREFVAGFTATGNTNYADSMKGRFTISRDNTKNAVYLQIDSLKPEDTAVYYCYMLDKWGQGTQVTVSS ), measured pKd is 7.89

Ref: patent US20230414780A1
